Below are Ki values for Substance-P receptor (Homo sapiens, UniProt P25103) collected from several publications.
Observation type: Ki (nM)

[[record]]
molecule = "CN(CCc1cc(C(F)(F)F)cc(C(F)(F)F)c1)C(=O)C(c1ccccc1)N1CCC(N2CCOCC2)CC1 (stereo not shown)"
assay_result = 1.4


a. C[C@@H]1c2nnc(-c3csc(C(F)(F)F)n3)n2CCN1C(=O)c1ccc(F)c(F)c1F
b. CC(C)(Cc1cc(C(F)(F)F)cc(C(F)(F)F)c1)NC(=O)C(c1ccccc1)N1CCNCC1 (stereo not shown)
c. CCC(C)[C@H](NC(=O)Cc1ccccc1F)C(=O)N[C@]1(C(=O)N[C@H](C(N)=S)C(C)CC)CCc2[nH]c3c(C(F)(F)F)cccc3c2C1 (stereo partly shown)
Ranking field: Ki; order: falling. Response format: the labels, sorted as the prompt asks.
a, c, b
(a: 28000 nM, c: 840 nM, b: 2.9 nM)
